# procedure_summary: Toxicity liver stage against HepG2, at 10uM
# Assay type: cell-based
# Design: test concentration 10 uM, cell line HepG2-A16-CD81EGFP
# test_settings: human, HepG2-A16-CD81EGFP cells; read-out: INHIBITION
cytotoxicity at 10 µM values by entry
assay_metric: cytotoxicity at 10 µM (%)

* CC(C)CC(=O)N1CCC2(CC1)COCCN2Cc1ccc(F)cc1 | -77.1
* COc1ncnc2c1CCN(c1cccc(F)c1)CC2 | 10.7
* COc1ccc(Br)c(NC(=O)NCc2cnn(C)c2)c1 | 6.91
* CCOC(C)C(=O)Nc1ccc(Sc2nncn2C)c(Cl)c1 (configuration not stated) | -1.37
* Cn1cccc1C(=O)NS(=O)(=O)c1cnn(-c2ccccc2F)c1 | -7.83
* CCc1nc(CN(C)C2CCN(Cc3nc(C4CC4)no3)C2)no1 (configuration not stated) | 14.9
* CNC(=O)CSC(C)c1ccc(Br)cc1 (configuration not stated) | -5.71
* Cc1nc(CN2C[C@@H]3CN(C(=O)C4CC4)C[C@@H]3C2=O)cs1 | 4.19
* Cc1ccsc1C(=O)NCC1COCc2c(C)nnn2C1 (configuration not stated) | -3.51
* Cc1ccc(CCC(=O)N2CCCC(n3cncn3)C2)c(C)c1 (configuration not stated) | 1.8
* CC(C)C[C@H](NC(=O)Nc1ccc(F)c(Cl)c1)C(=O)O | -43
* COCCCC1(CO)CCCN(C(=O)c2cnc3c(c2)CCCC3)C1 (configuration not stated) | -50.2

* * *

# procedure_summary: Toxicity liver stage against HepG2, at 10uM
# Format: cell-based
# Design: test concentration 10 uM, cell line HepG2-A16-CD81EGFP
# test_settings: human, HepG2-A16-CD81EGFP cells; read-out: INHIBITION
Recorded cytotoxicity at 10 µM by entry
assay_metric: cytotoxicity at 10 µM (%)

* N[C@@H]1c2ccccc2C2(CCN(C(=O)c3ccccc3O)CC2)[C@H]1O | 6.38
* COCCNc1cc(-c2ccccc2S(N)(=O)=O)c2cc[nH]c2n1 | 6.68
* Cc1ccc(C)c(S(=O)(=O)NCCNc2ccc(-n3cccc3)nn2)c1 | 1.77
* Cc1cccc(CN(C(=O)CS(C)(=O)=O)C(C)C)c1 | 1.68
* CN(C)S(=O)(=O)NC(=O)CC(c1ccccc1)C(F)(F)F (stereo unspecified) | -39.5
* CC(C)(C)CC(NC(=O)N1CCC(C(N)=O)CC1)C(F)(F)F (stereo unspecified) | -1.14
* COCCCN(C)C1CCCN(Cc2noc(C)n2)C1 (stereo unspecified) | -8.06
* CCn1ncc2c(C(F)(F)F)cc(-c3cnn(C)c3)nc21 | 3.67
* COCCNC(=O)c1ccc2ccc(N3CCN(CC4CC4)CC3)n2c1 | 6.59
* COc1cc(CN(C)C(=O)NCCC2CCCO2)ccc1SC (stereo unspecified) | -13.8
* Cc1ccc2oc(CN3CCC(C(=O)O)(n4ccnc4)CC3)c(C)c2c1 | -9.06

* * *

# procedure_summary: Toxicity liver stage against HepG2, at 10uM
# Format: cell-based
# Parameters: test concentration 10 uM, cell line HepG2-A16-CD81EGFP
# test_settings: human, HepG2-A16-CD81EGFP cells; read-out: INHIBITION
assay_metric: cytotoxicity at 10 µM (%)

• O=C1CCCN1CCN1CC[C@@]2(O)CCN(c3ncccn3)C[C@H]2C1 = -2.61
• c1cnc(N2CCOCC3(CCCN(Cc4cc[nH]n4)C3)C2)nc1 (stereo unspecified) = 3.35
• O=S(=O)(CCN1CCCCC1Cn1cncn1)c1ccccc1 (stereo unspecified) = 10.4
• CCOCC(O)CN1CCN(C(=O)c2cc(F)ccc2C)CC1 (stereo unspecified) = -6.69
• Cc1cccc(CN2CCC3(CCCN(C(=O)N(C)C)C3)C2=O)n1 (stereo unspecified) = 1.44
• Cc1nc(CN2CCN(c3ncnc4ccccc34)CC2)no1 = 61.5
